Source of measurements: patent US20230295200A1

Recorded Ki for the following compounds
# MEASUREMENT TARGET: STAT6 protein (Homo sapiens)
# Sequence (P42226 whole entry): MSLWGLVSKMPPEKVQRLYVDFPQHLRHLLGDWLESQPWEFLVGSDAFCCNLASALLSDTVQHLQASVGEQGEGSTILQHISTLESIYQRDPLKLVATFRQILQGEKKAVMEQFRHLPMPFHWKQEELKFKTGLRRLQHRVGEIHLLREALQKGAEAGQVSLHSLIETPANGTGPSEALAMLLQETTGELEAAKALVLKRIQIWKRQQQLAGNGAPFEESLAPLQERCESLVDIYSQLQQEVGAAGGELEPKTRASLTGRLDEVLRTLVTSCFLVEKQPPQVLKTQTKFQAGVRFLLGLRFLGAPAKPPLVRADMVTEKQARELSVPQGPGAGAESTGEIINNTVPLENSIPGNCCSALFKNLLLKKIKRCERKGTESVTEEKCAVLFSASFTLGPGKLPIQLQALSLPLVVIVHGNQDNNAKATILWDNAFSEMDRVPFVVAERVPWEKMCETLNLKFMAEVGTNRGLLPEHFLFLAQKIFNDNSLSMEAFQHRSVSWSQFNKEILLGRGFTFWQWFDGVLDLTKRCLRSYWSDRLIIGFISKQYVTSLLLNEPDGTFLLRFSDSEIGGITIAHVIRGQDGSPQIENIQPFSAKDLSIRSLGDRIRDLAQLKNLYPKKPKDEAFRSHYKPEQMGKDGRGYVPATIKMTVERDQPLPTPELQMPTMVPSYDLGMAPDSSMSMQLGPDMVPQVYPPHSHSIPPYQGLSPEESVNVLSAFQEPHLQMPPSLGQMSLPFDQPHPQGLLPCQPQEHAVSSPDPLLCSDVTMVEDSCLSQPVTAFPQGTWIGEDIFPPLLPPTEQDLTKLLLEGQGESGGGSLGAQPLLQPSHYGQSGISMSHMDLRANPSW
# EXPERIMENTAL DETAILS: Fluorescence polarization (FP) binding assay, STAT6
# RECORDED CONDITIONS: FP competition, 5 nM fluorescein-labeled tracer, 200 nM protein, PBS pH7.4; read-out: Binding STAT6
PROPERTY: Ki

INSERT INTO results (compound, observed_value) VALUES
  ('O=C(N[C@@H](CCCc1ccccc1)C(=O)N1CCC[C@H]1C(=O)N1CCO[C@H](c2ccccc2)C1)c1cc2cc(C(F)(F)P(=O)(O)O)ccc2s1', '< 0.1 µM'),
  ('CCOC(=O)CO[C@@H]1C[C@@H](C(=O)N(CCC(=O)O)c2ccc(Br)cc2)N(C(=O)[C@@H](NC(=O)c2cc3cc(C(F)(F)P(=O)(O)O)ccc3s2)C(C)(C)C)C1', '0.1 to 1 µM'),
  ('CC(=O)N1CC[C@H]2CC[C@@H](C(=O)N3CCc4ccc(F)cc4C3)N2C(=O)[C@@H](NC(=O)c2cc3cc(C(F)(F)P(=O)(O)O)ccc3[nH]2)C1', '> 10 µM'),
  ('CC(=O)N1CC[C@H]2CC[C@@H](C(=O)N3CCc4cc(I)ccc4C3)N2C(=O)[C@@H](NC(=O)c2cc3cc(C(F)(F)P(=O)(O)O)ccc3[nH]2)C1', '1 to 10 µM'),
  ('CC(=O)N1CC[C@H]2CC[C@@H](C(=O)N3CCC4(CCCCCC4)C3)N2C(=O)[C@@H](NC(=O)c2cc3cc(C(F)(F)P(=O)(O)O)ccc3s2)C1', '> 10 µM'),
  ('CC(C)(C)[C@H](NC(=O)c1cc2cc(C(F)(F)P(=O)(O)O)ccc2s1)C(=O)N1CCCCC[C@H]1C(=O)N1CC[C@@H](c2ccccc2)C1', '> 10 µM'),
  ('O=C(N[C@@H](Cc1ccc(Br)cc1)C(=O)N1CCC[C@H]1C(=O)N1CCO[C@H](c2ccccc2)C1)c1cc2cc(C(F)(F)P(=O)(O)O)ccc2s1', '0.1 to 1 µM'),
  ('CC(C)(C)[C@H](NC(=O)c1cc2cc(C(F)(F)P(=O)(O)O)ccc2s1)C(=O)N1Cc2ccccc2C[C@H]1C(=O)N1CCOC(c2ccccc2Cl)C1 (stereo partly shown)', '0.1 to 1 µM'),
  ('CC(=O)N1CC[C@H]2CC[C@@H](C(=O)N3CCc4ccc(C(F)(F)F)cc4C3)N2C(=O)[C@@H](NC(=O)c2cc3cc(C(F)(F)P(=O)(O)O)ccc3[nH]2)C1', '> 10 µM'),
  ('CC(C)(C)[C@H](NC(=O)c1cc2cc(C(F)(F)P(=O)(O)O)ccc2s1)C(=O)N1CCC[C@H]1C(=O)N1CCOC(c2ccccc2F)C1 (stereo partly shown)', '0.1 to 1 µM'),
  ('NC(=O)CC[C@H](NC(=O)c1cc2cc(C(F)(F)P(=O)(O)O)ccc2s1)C(=O)N1CCC[C@H]1C(=O)N1CCO[C@H](c2ccccc2)C1', '0.1 to 1 µM'),
  ('O=C(N[C@H](C(=O)N1CCC[C@H]1C(=O)N1CCO[C@H](c2ccccc2)C1)C1CCNCC1)c1cc2cc(C(F)(F)P(=O)(O)O)ccc2s1', '0.1 to 1 µM'),
  ('CC1CN(C(=O)[C@@H]2Cc3ccccc3CN2C(=O)[C@@H](NC(=O)c2cc3cc(C(F)(F)P(=O)(O)O)ccc3s2)C(C)(C)C)CC(c2ccccc2)O1 (stereo partly shown)', '0.1 to 1 µM'),
  ('CC(C)(C)[C@H](NC(=O)c1cc2cc(C(F)(F)P(=O)(O)O)ccc2s1)C(=O)N1C[C@H](OCc2ccccc2)C[C@H]1C(=O)N1CCO[C@H](c2ccccc2)C1', '< 0.1 µM'),
  ('CC(=O)N1CC[C@H]2CC[C@@H](C(=O)N3CCc4cccc(F)c4C3)N2C(=O)[C@@H](NC(=O)c2cc3cc(C(F)(F)P(=O)(O)O)ccc3[nH]2)C1', '> 10 µM'),
  ('CC(=O)N1CC[C@H]2CC[C@@H](C(=O)N[C@H](C)c3ccccc3)N2C(=O)[C@@H](NC(=O)c2cc3cc(C(F)(F)P(=O)(O)O)ccc3[nH]2)C1', '> 10 µM'),
  ('CC(C)(C)[C@H](NC(=O)c1cc2cc(C(F)(F)P(=O)(O)O)ccc2s1)C(=O)N1CCC[C@H]1C(=O)Nc1ccc(-c2ccccc2)s1', '1 to 10 µM'),
  ('CC(=O)N1CC[C@H]2CC[C@@H](C(=O)N(C)c3ccc(Br)cc3)N2C(=O)[C@@H](NC(=O)c2cc3cc(C(F)(F)P(=O)(O)O)ccc3s2)C1', '> 10 µM'),
  ('CC(C)(C)[C@H](NC(=O)c1cc2cc(C(F)(F)P(=O)(O)O)ccc2[nH]1)C(=O)N1CCC[C@H]1C(=O)Nc1nc(-c2ccccc2)cs1', '> 10 µM'),
  ('CC(C)(C)[C@H](NC(=O)c1cc2cc(C(F)(F)P(=O)(O)O)ccc2s1)C(=O)N1CCC[C@H]1C(=O)N1CCCCC(c2ccccc2)C1 (stereo partly shown)', '0.1 to 1 µM'),
  ('CC(C)(C)[C@H](NC(=O)c1cc2cc(C(F)(F)P(=O)(O)O)ccc2s1)C(=O)N1C[C@@H](Oc2ccccc2)C[C@H]1C(=O)N1CCO[C@H](c2ccccc2)C1', '< 0.1 µM'),
  ('NCCCC[C@H](NC(=O)/C=C/c1ccc(C(F)(F)P(=O)(O)O)cc1)C(=O)N1CCC[C@H]1C(=O)N1CCc2ccccc2C1', '> 10 µM');
